experiment: calorie-restriction mimetic ROS inhibitors, yeast – validation compound set, pilot screen (AID 2706);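 further: yeast exposed to compound for one week at 30 degrees C before staining; 100% = mean of all compound wells on the same plate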; details: S. cerevisiae aging, superoxide DHE fluorescence; at 10 µM; stronger effect = lower value
measured.endpoint: superoxide response (% of plate) (%)
Answers are plain numbers, in %.

Example results:
COc1ccc(C2NCCC3(O)CCCCC23)c(OC)c1OC (stereo not given) | 105
CCOc1ccc(C(=O)N2CCCC2C(=O)O)cc1 (stereo not given) | 107
CC(CCCC(C)(C)O)NC(=O)c1ccc(OC2CCN(C(=O)C3CC3)CC2)cc1 (stereo not given) | 97.8
COc1ccc(C2NC(=O)c3ccccc3O2)c(OC)c1OC (stereo not given) | 89.7

Shift focus to the following entry.
Ask: // query superoxide response (% of plate) value for entry Cc1cc(=O)oc2cc(OC(C)C(=O)NCC3CCCO3)ccc12 (stereo not given)
Reply: 91.7

* * *

assay: TOR pathway LAP4-GFP level changes – S. cerevisiae, multiplex flow cytometry, primary screen (AID 1873); details: S. cerevisiae LAP4-GFP expression, 3 h, at 10 µM, stronger effect = higher value
Records with an inconclusive call do not appear.
measured.endpoint: GFP response vs DMSO (%)
One number for each entry, in %.

Some entries whose results are on file:
CC1(C)O[C@@H]2C[C@H]3[C@@H]4C[C@H](F)C5=CC(=O)CC[C@]5(C)[C@H]4[C@@H](O)C[C@]3(C)[C@]2(C(=O)CO)O1 | 91.5
CNCCCC1c2ccccc2C=Cc2ccccc21 | 83.1
Cc1ccc(O)c(CCc2ccccc2)n1 | 90.7
N#Cc1cc2c([nH]c1=O)CCCC2 | 90.7
O=C(O)C1CSC(c2ccc3c(c2)OCO3)N1 (stereo unspecified) | 78.7

Now consider the entry below.
Ask: Suppose we examine the compound CC(C)(C)C(=O)Nc1cccc(OC(F)(F)C(F)Cl)c1 (stereo unspecified) ; what GFP response vs DMSO value has been reported?
Reply: 107

Reference source for all entries: PubChem BioAssay
